Experimental system: T1, mouse serum albumin (mouse, UniProt P07724 25-608)
T1 construct: also called MSA
T1 sequence (P07724 25-608 limits assumed): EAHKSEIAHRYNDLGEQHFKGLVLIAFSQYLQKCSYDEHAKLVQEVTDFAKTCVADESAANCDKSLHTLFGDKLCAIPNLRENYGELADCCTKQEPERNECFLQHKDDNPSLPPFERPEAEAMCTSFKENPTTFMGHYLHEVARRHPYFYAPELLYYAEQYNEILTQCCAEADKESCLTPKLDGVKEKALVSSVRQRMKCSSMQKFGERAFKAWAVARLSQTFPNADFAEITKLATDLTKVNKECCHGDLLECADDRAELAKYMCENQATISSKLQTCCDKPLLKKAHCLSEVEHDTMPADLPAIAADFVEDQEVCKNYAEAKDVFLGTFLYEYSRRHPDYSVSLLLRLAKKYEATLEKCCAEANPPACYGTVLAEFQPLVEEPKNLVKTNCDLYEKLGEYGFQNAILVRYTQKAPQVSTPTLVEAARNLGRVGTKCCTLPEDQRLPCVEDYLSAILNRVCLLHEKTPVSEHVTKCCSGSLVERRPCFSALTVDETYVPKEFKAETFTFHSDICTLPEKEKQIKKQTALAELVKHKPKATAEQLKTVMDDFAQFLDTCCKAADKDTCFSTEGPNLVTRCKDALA
Experimental protocol: SPR, albumin on chip, pH 5.5;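 note: albumins amine-coupled onto carboxyl SPR chips, with each analyte also run over a hen egg lysozyme surface as negative control, Kd derived from binding kinetics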
Reported property: Kd (nM)
Dear colleague, please return just the value in nM, with no unit written.

Specify Kd for BA11-aminoxy (VNAR, C-terminal aminoxy (intein cleavage with dioxyamine)) VNAR: TRVDQSPSSLSASVGDRVTITCVLTDTSYPLYSTYWYRKNPGSSNKEQISISGRYSESVNKGTKSFTLTISSLQPEDSATYYCRAMSTNIWTGDGAGTKVEIK and stop.
21.2

Specify Kd for BA11 (humanised HSA-binding VNAR) (VNAR, VNAR) VNAR: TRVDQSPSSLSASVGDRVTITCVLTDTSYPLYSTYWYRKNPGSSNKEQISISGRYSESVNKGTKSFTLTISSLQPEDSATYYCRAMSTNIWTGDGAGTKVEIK and stop.
4.8
